Measured abundance fitness values are reported for all entries that follow.
B1: Retinoic acid receptor RXR-alpha, residues 132 to 208; numbered along this chain, P19793 (parent)
chain: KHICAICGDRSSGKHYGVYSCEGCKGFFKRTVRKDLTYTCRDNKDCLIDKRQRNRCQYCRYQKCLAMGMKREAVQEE

variants of: B1; assay: abundance fitness (aPCA) (normalised: wild type 0, dead -1); higher = more abundant; growth selection in yeast, the domain comes from the species named; conditions: Homo sapiens
Parameter measured: abundance fitness

[[record]]
sequence_string = "KHICAICGDRSSGKHYGVYSCEGCKGFFKRTVRKDLTYTCRDNKDYLIDKRQRNRCQYCRYQKCLAMGMKREAVQEE [C46Y]"
result = -0.383

[[record]]
sequence_string = "KHICAICGDRSSGKHYGVYSCEGCKGFFKKTVRKDLTYTCRDNKDCLIDKRQRNRCQYCRYQKCLAMGMKREAVQEE [R30K]"
result = 0.073

[[record]]
sequence_string = "KHICAICGMRSSGKHYGVYSCEGCKGFFKRTVRKDLTYTCRDNKDCLIDKRQRNRCQYCRYQKCLAMGMKREAVQEE [D9M]"
result = -0.354

[[record]]
sequence_string = "KHICAICGDRSSGKHYKVYSCEGCKGFFKRTVRKDLTYTCRDNKDCLIDKRQRNRCQYCRYQKCLAMGMKREAVQEE [G17K]"
result = -0.085

[[record]]
sequence_string = "KHICAICGDRSSGKEYGVYSCEGCKGFFKRTVRKDLTYTCRDNKDCLIDKRQRNRCQYCRYQKCLAMGMKREAVQEE [H15E]"
result = -0.065

[[record]]
sequence_string = "KHICIICGDRSSGKHYGVYSCEGCKGFFKRTVRKDLTYTCRDNKDCLIDKRQRNRCQYCRYQKCLAMGMKREAVQEE [A5I]"
result = 0.055

[[record]]
sequence_string = "KHECAICGDRSSGKHYGVYSCEGCKGFFKRTVRKDLTYTCRDNKDCLIDKRQRNRCQYCRYQKCLAMGMKREAVQEE [I3E]"
result = -0.428

[[record]]
sequence_string = "KHICAICGDRSSGKHYGVYSCEGCKMFFKRTVRKDLTYTCRDNKDCLIDKRQRNRCQYCRYQKCLAMGMKREAVQEE [G26M]"
result = -0.071

[[record]]
sequence_string = "KHICAICGDRSSGKHYGVYSCEGCKGFFKRTVRKDLTYTCRDNKDCLIDDRQRNRCQYCRYQKCLAMGMKREAVQEE [K50D]"
result = 0.019

[[record]]
sequence_string = "KHICAICGDRSSGKHYGVYMCEGCKGFFKRTVRKDLTYTCRDNKDCLIDKRQRNRCQYCRYQKCLAMGMKREAVQEE [S20M]"
result = -0.027

[[record]]
sequence_string = "KHICAICGDRSSGKHYGVYSCEGCKGFFKRKVRKDLTYTCRDNKDCLIDKRQRNRCQYCRYQKCLAMGMKREAVQEE [T31K]"
result = -0.233

[[record]]
sequence_string = "KHICAICGDRSSGKHYGVYSCEGCKGFFKRTVRKDNTYTCRDNKDCLIDKRQRNRCQYCRYQKCLAMGMKREAVQEE [L36N]"
result = -0.024

[[record]]
sequence_string = "KHICAICGDRSSGKHYGVYSCEGFKGFFKRTVRKDLTYTCRDNKDCLIDKRQRNRCQYCRYQKCLAMGMKREAVQEE [C24F]"
result = -0.889

[[record]]
sequence_string = "KHICAICGDRSSGKHYGVYSCEGCKGFPKRTVRKDLTYTCRDNKDCLIDKRQRNRCQYCRYQKCLAMGMKREAVQEE [F28P]"
result = -0.906

[[record]]
sequence_string = "KHICAICGDRSSGKHYGVYSCEGCKGFFKRTVRKDLTYTCRDNKDRLIDKRQRNRCQYCRYQKCLAMGMKREAVQEE [C46R]"
result = -0.301

[[record]]
sequence_string = "KHICAICGDRSSGKHYGVYSCEGWKGFFKRTVRKDLTYTCRDNKDCLIDKRQRNRCQYCRYQKCLAMGMKREAVQEE [C24W]"
result = -1.01

[[record]]
sequence_string = "KHICAICGDRSSGKHYGVYSCEGCKGFVKRTVRKDLTYTCRDNKDCLIDKRQRNRCQYCRYQKCLAMGMKREAVQEE [F28V]"
result = -0.321

[[record]]
sequence_string = "KHICAICQDRSSGKHYGVYSCEGCKGFFKRTVRKDLTYTCRDNKDCLIDKRQRNRCQYCRYQKCLAMGMKREAVQEE [G8Q]"
result = 0.043

[[record]]
sequence_string = "KHICAICGDRSSGKHYGVYSDEGCKGFFKRTVRKDLTYTCRDNKDCLIDKRQRNRCQYCRYQKCLAMGMKREAVQEE [C21D]"
result = -0.413

[[record]]
sequence_string = "KHICAICGDRSSGKHYGVYSCEGCKGFFKRTVRKDLIYTCRDNKDCLIDKRQRNRCQYCRYQKCLAMGMKREAVQEE [T37I]"
result = -0.016

[[record]]
sequence_string = "KHICAICGDRSSGKHYGVYSCEGIKGFFKRTVRKDLTYTCRDNKDCLIDKRQRNRCQYCRYQKCLAMGMKREAVQEE [C24I]"
result = -0.987

[[record]]
sequence_string = "KHICAICGDRSSGKHYGRYSCEGCKGFFKRTVRKDLTYTCRDNKDCLIDKRQRNRCQYCRYQKCLAMGMKREAVQEE [V18R]"
result = -0.227

[[record]]
sequence_string = "KHICAICGDRSSGKHYGVYSCEGCKGFFKRTVRKDLTYTCRDNHDCLIDKRQRNRCQYCRYQKCLAMGMKREAVQEE [K44H]"
result = -0.086

[[record]]
sequence_string = "KHICAICGDRSSGKHYGVYSCEGCKGFFKDTVRKDLTYTCRDNKDCLIDKRQRNRCQYCRYQKCLAMGMKREAVQEE [R30D]"
result = -0.008

[[record]]
sequence_string = "KGICAICGDRSSGKHYGVYSCEGCKGFFKRTVRKDLTYTCRDNKDCLIDKRQRNRCQYCRYQKCLAMGMKREAVQEE [H2G]"
result = -0.005

[[record]]
sequence_string = "KHICAICGDRSSGKHYGVYQCEGCKGFFKRTVRKDLTYTCRDNKDCLIDKRQRNRCQYCRYQKCLAMGMKREAVQEE [S20Q]"
result = 0.012

[[record]]
sequence_string = "KHICAICGDRSSGKHYGVYSCEGCKGFFKRVVRKDLTYTCRDNKDCLIDKRQRNRCQYCRYQKCLAMGMKREAVQEE [T31V]"
result = -0.003

[[record]]
sequence_string = "KHICMICGDRSSGKHYGVYSCEGCKGFFKRTVRKDLTYTCRDNKDCLIDKRQRNRCQYCRYQKCLAMGMKREAVQEE [A5M]"
result = 0.036

[[record]]
sequence_string = "KHICAICGDRSSGKHYGVYSCAGCKGFFKRTVRKDLTYTCRDNKDCLIDKRQRNRCQYCRYQKCLAMGMKREAVQEE [E22A]"
result = -0.048

[[record]]
sequence_string = "KHICAILGDRSSGKHYGVYSCEGCKGFFKRTVRKDLTYTCRDNKDCLIDKRQRNRCQYCRYQKCLAMGMKREAVQEE [C7L]"
result = -1.23

[[record]]
sequence_string = "KHICAICGDRSSVKHYGVYSCEGCKGFFKRTVRKDLTYTCRDNKDCLIDKRQRNRCQYCRYQKCLAMGMKREAVQEE [G13V]"
result = -0.067

[[record]]
sequence_string = "KHICAICGDRSSGKHYGVYSCEGCKGFFKRTVRKDLTYTCRDNKDCQIDKRQRNRCQYCRYQKCLAMGMKREAVQEE [L47Q]"
result = -0.095

[[record]]
sequence_string = "KHICAICGDRSSGKHYGVYSCEGCKGFFKRTVRKDLTYTCRDKKDCLIDKRQRNRCQYCRYQKCLAMGMKREAVQEE [N43K]"
result = 0.1

[[record]]
sequence_string = "KHICAICGDRSSGKHYGVYSCEGPKGFFKRTVRKDLTYTCRDNKDCLIDKRQRNRCQYCRYQKCLAMGMKREAVQEE [C24P]"
result = -0.904

[[record]]
sequence_string = "KHICAICGDRSSGKHYGVYSCVGCKGFFKRTVRKDLTYTCRDNKDCLIDKRQRNRCQYCRYQKCLAMGMKREAVQEE [E22V]"
result = -0.053

[[record]]
sequence_string = "KHICAICGDRSSAKHYGVYSCEGCKGFFKRTVRKDLTYTCRDNKDCLIDKRQRNRCQYCRYQKCLAMGMKREAVQEE [G13A]"
result = 0.02

[[record]]
sequence_string = "KHICAICGDRSSGKHYGVYSCEGCKGFIKRTVRKDLTYTCRDNKDCLIDKRQRNRCQYCRYQKCLAMGMKREAVQEE [F28I]"
result = -0.289

[[record]]
sequence_string = "KHICAICGDRSSGKHYGVYSCEGCKGFFKRTVRKDLTYTCWDNKDCLIDKRQRNRCQYCRYQKCLAMGMKREAVQEE [R41W]"
result = -0.007

[[record]]
sequence_string = "KHICAICGDRSSGKAYGVYSCEGCKGFFKRTVRKDLTYTCRDNKDCLIDKRQRNRCQYCRYQKCLAMGMKREAVQEE [H15A]"
result = -0.13

[[record]]
sequence_string = "KHICAICGDRSSGKHYGCYSCEGCKGFFKRTVRKDLTYTCRDNKDCLIDKRQRNRCQYCRYQKCLAMGMKREAVQEE [V18C]"
result = -0.078

[[record]]
sequence_string = "KHICAICGDRPSGKHYGVYSCEGCKGFFKRTVRKDLTYTCRDNKDCLIDKRQRNRCQYCRYQKCLAMGMKREAVQEE [S11P]"
result = 0.072

[[record]]
sequence_string = "KHICAICGDRSSGKHYGVYSCEGCKGFFKRTVRKDLTYTCRDNKDMLIDKRQRNRCQYCRYQKCLAMGMKREAVQEE [C46M]"
result = -0.206

[[record]]
sequence_string = "KHICAICGDRSSGKHYGNYSCEGCKGFFKRTVRKDLTYTCRDNKDCLIDKRQRNRCQYCRYQKCLAMGMKREAVQEE [V18N]"
result = -0.574

[[record]]
sequence_string = "KHICAICGDRSSGKHYGVYSCERCKGFFKRTVRKDLTYTCRDNKDCLIDKRQRNRCQYCRYQKCLAMGMKREAVQEE [G23R]"
result = -0.037

[[record]]
sequence_string = "KHICAICGDRSSGKHYGVYSCMGCKGFFKRTVRKDLTYTCRDNKDCLIDKRQRNRCQYCRYQKCLAMGMKREAVQEE [E22M]"
result = -0.136

[[record]]
sequence_string = "KHICAICGDRSSGKHYGVYSCEGCKGFWKRTVRKDLTYTCRDNKDCLIDKRQRNRCQYCRYQKCLAMGMKREAVQEE [F28W]"
result = -0.024

